Hello, the source for this data is patent US20110152267A1, in case you need it.

System: NCI-H-1792 lung adenocarcinoma cell line
Assay: DIMSCAN cytotoxicity, fenretinide + L-threo-sphinganines 3:1 (Example B12)
Assay type: cell-based, human
Conditions: 4-HPR 1.5 μM + L-threo-sphinganine 0.5 μM, 96 h
# maps each entry to its Fa (fraction affected)
Answer with a bare number; do not write a unit.

>>> df
                                   compound  test_value
0  CCCCCCCCCCCCCCCC[C@H](O)[C@@H](N)CO [C19, (2S,3S)-2-amino-1,3-nonadecanediol]       0.138
1  CCCCCCCCCCCCCCCCC[C@H](O)[C@@H](N)CO [C20, (2S,3S)-2-amino-1,3-icosanediol]       0.287
2        CCCCCCCCC[C@H](O)[C@@H](N)CO [C12]       0.217
3  CCCCCCCCCCCCCCC[C@H](O)[C@@H](N)CO [C18, (2S,3S)-2-amino-1,3-octadecanediol, reference compound]       0.243

Switching to the query record.
// lookup Fa (fraction affected) for CCCCCCCCCCCCCC[C@H](O)[C@@H](N)CO [C17, (2S,3S)-2-amino-1,3-heptadecanediol] 0.112

====

System: PANC-1 pancreatic adenocarcinoma cell line
Assay: DIMSCAN cytotoxicity, fenretinide + L-threo-sphinganines 3:1 (Example B18)
Format: cell-based, human
Settings: 4-HPR 9 μM + L-threo-sphinganine 3 μM
assay endpoint: CI
Answer with a bare number; do not write a unit.

>>> df
                              compound  test_value
0  CCCCCCCCCCCCCCCC[C@H](O)[C@@H](N)CO         0.1

Switching to the query record.
// lookup CI for CCCCCCCCCCCC[C@H](O)[C@@H](N)CO 0.2

====

System: U-266 Multiple Myeloma cell line
Test: DIMSCAN cytotoxicity, fenretinide + L-threo-sphinganines 3:1 (Example B3)
Type: cell-based, human
Conditions: 4-HPR 9 μM + L-threo-sphinganine 3 μM, 96 h
Procedure: Cytotoxicity Assay—Once again, cytotoxicity is determined using the DIMSCAN assay system (R. Proffitt et al., Cytometry 24, 204-213 (1996); T. Frgala et al., Mol Cancer Ther. 6:886-97, 2007). The system employs digital imaging microscopy to quantify viable cells, which selectively accumulate fluorescein diacetate to become brightly fluorescent. […] Measured fluorescence is directly proportionate to the number of viable cells. […]
assay endpoint: CI (Combination Index)
Answer with a bare number; do not write a unit.

                              compound                      study_target  test_value
0         CCCCCCCCC[C@H](O)[C@@H](N)CO  U-266 Multiple Myeloma cell line         1.2
1       CCCCCCCCCCC[C@H](O)[C@@H](N)CO  U-266 Multiple Myeloma cell line         1.3
2  CCCCCCCCCCCCCCCC[C@H](O)[C@@H](N)CO  U-266 Multiple Myeloma cell line         0.3

Switching to the query record.
// lookup CI (Combination Index) for CCCCCCCCCCCCCCC[C@H](O)[C@@H](N)CO [C18, (2S,3S)-2-amino-1,3-octadecanediol, reference compound] 0.8

====

Test system: MOLT-4 acute lymphoblastic leukemia cell line
Assay: DIMSCAN cytotoxicity, fenretinide + L-threo-sphinganines 3:1 (Example B20)
Type: cell-based, human
Details: 4-HPR 6 μM + L-threo-sphinganine 2 μM
# maps each entry to its CI

Known results for compounds:
In [3]: df
Out[3]:
                                   compound  test_value
0  CCCCCCCCCCCCCC[C@H](O)[C@@H](N)CO [C17, (2S,3S)-2-amino-1,3-heptadecanediol]         0.7
1  CCCCCCCCCCCCCCC[C@H](O)[C@@H](N)CO [C18, (2S,3S)-2-amino-1,3-octadecanediol, reference compound]         0.7
2  CCCCCCCCCCCCCCCC[C@H](O)[C@@H](N)CO [C19, (2S,3S)-2-amino-1,3-nonadecanediol]         0.8

// lookup CI for CCCCCCCCCCCCCCCCC[C@H](O)[C@@H](N)CO [C20, (2S,3S)-2-amino-1,3-icosanediol] 0.8
